- testSystem: Bub1 (Homo sapiens)
- Construct: catalytic domain of human Bub1 (amino acids 704-1085); His6 (N); made in house; host or cells: insect cells (Hi5)
- assayMethodText: Bub1 high ATP kinase assay (TR-FRET)
- Format: biochemical
- recordedConditions: Bub1 high ATP (2 mM) IC50, TR-FRET, 2 mM ATP; Table 3
measuredAttribute: IC50 (nM)
Number in nM, nothing else.

Could you share which IC50 value was measured for Cc1c(Cl)cccc1Nc1c(-c2ccncc2OCC2COCCO2)[nH]c2c1C(=O)NCC2C (single isomer, unassigned) [Example 70] ?
1550

Could you do the same for COc1c(Cl)cccc1Nc1c(-c2ccncc2OC[C@@H]2CCCO2)[nH]c2c1C(=O)NCC2CCC(F)(F)F (single isomer, unassigned) [Example 98] , please?
954

Could you do the same for COc1c(Cl)cccc1Nc1c(-c2ccncc2OC[C@@H]2CCCO2)[nH]c2c1C(=O)NCC2CC=C(F)F (single isomer, unassigned) [Example 100] , please?
3640

Could you do the same for Cc1c(Cl)cccc1Nc1c(-c2ccncc2OCC2COCCO2)[nH]c2c1C(=O)N[C@H](C)C2 (stereo partly drawn) , please?
1030

Could you do the same for COCC(C)Oc1cnccc1-c1[nH]c2c(c1Nc1cccc(Cl)c1OC)C(=O)N[C@@H]1CCC[C@H]21 (single isomer, unassigned) [Example 51] , please?
7090

Could you do the same for COc1c(Cl)cccc1Nc1c(-c2ccncc2OCC2COC(C)(C)CO2)[nH]c2c1C(=O)NC1(CC1)C2 (stereo not drawn) [Example 132] , please?
1480

###

- testSystem: Ba/F3-EGFR-N771_P772insH cells (Homo sapiens, UniProt P00533, INS771H, cells depend on it)
- Sequence (P00533 with tags, fused parts or gaps INS771H): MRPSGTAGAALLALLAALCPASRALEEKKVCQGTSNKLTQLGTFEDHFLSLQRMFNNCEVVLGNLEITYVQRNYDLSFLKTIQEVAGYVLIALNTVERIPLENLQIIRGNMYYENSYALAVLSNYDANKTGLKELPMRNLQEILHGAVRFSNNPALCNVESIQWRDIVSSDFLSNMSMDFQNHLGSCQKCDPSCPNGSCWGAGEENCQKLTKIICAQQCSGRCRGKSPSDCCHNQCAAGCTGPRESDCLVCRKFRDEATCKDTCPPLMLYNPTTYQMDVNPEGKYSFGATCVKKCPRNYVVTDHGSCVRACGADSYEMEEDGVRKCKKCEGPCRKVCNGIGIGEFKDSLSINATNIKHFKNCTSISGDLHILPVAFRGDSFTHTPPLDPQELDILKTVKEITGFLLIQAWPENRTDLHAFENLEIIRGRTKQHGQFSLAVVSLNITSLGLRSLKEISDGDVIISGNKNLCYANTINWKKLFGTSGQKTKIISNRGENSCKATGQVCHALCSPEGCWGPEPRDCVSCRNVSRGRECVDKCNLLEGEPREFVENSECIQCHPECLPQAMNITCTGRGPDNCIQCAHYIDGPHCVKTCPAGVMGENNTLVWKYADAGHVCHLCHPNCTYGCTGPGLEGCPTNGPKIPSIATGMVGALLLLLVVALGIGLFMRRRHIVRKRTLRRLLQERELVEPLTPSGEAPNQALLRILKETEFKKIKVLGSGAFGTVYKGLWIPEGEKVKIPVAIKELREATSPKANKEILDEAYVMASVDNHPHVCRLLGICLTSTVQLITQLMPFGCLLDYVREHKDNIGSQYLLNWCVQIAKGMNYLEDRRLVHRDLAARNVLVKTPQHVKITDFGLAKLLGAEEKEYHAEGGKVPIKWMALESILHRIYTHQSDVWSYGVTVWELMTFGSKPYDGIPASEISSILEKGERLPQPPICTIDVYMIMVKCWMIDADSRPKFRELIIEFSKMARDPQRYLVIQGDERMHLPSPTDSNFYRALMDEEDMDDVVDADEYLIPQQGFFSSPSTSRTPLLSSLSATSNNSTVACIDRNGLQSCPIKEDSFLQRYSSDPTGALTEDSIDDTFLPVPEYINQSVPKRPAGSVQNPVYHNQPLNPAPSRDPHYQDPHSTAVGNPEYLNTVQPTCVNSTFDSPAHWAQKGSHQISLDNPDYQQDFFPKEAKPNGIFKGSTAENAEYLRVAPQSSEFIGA
- assayMethodText: Ba/F3 cell survival assay, EGFR N771_P772insH
- Assay type: cell-based
- recordedConditions: EGFR Exon20 insertion mutations; Table 6; read-out: BA/F3 (EGFR N771_P772insH) IC50
measuredAttribute: GI50
Please state the value followed by its unit.

Could you share which GI50 value was measured for COCC(C)Oc1cnccc1-c1[nH]c2c(c1Nc1cccc(Cl)c1OC)C(=O)N[C@@H]1CCC[C@H]21 (single isomer, unassigned) ?
6.89 nM

Could you do the same for COc1c(Cl)cccc1Nc1c(-c2ccncc2OC[C@@H]2CCCO2)[nH]c2c1C(=O)NC1(CC1)C2 , please?
14.3 nM

Could you do the same for Cc1c(Cl)cccc1Nc1c(-c2ccncc2OCC2COCCO2)[nH]c2c1C(=O)NCC2C (single isomer, unassigned) , please?
18.3 nM

###

- testSystem: Ba/F3-EGFR-D770_N771insSVD cells (Homo sapiens, UniProt P00533, DUP768-770, cells depend on it)
- assayMethodText: Ba/F3 cell survival assay, EGFR D770_N771insSVD
- Format: cell-based
- recordedConditions: Cell Titer-Glo, 48 h, without IL-3; Table 4; read-out: BA/F3 (insSVD) IC50
Please go through the items and note down their GI50.
Please state the value followed by its unit.

Could you share which GI50 value was measured for COc1c(Cl)cccc1Nc1c(-c2ccncc2OCC2CCCCO2)[nH]c2c1C(=O)NCC2C (single isomer, unassigned) [Example 47] ?
106 nM

Could you do the same for CCc1c(Cl)cccc1Nc1c(-c2ccncc2OC[C@@H]2CN(C)CCO2)[nH]c2c1C(=O)N[C@H](C)C2 , please?
30.2 nM

Could you do the same for COc1c(Cl)cccc1Nc1c(-c2ccncc2OC[C@@H]2COCCN2C)[nH]c2c1C(=O)N[C@H](C)C2 , please?
8.67 nM

Could you do the same for COc1c(Cl)cccc1Nc1c(-c2ccncc2OCC2COCCO2)[nH]c2c1C(=O)NC1(CCC1)C2 (single isomer, unassigned) [Example 124] , please?
26 nM

###

Please go through the items and note down their pIC50.
- testSystem: Bub1 (Homo sapiens, UniProt O43683)
- Construct: catalytic domain of human Bub1 (amino acids 704-1085); His6 (N); made in house; host or cells: insect cells (Hi5)
- Sequence (O43683 704-1085): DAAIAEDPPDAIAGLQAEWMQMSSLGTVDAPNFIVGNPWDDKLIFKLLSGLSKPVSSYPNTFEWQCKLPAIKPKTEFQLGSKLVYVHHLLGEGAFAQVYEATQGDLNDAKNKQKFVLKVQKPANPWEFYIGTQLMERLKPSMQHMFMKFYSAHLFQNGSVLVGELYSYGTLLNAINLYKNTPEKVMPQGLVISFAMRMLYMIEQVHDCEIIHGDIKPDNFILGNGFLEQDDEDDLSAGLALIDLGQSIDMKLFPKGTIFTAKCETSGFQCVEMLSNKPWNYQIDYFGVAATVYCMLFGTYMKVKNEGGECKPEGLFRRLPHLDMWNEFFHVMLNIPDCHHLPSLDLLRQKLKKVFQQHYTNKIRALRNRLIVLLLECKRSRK
- assayMethodText: Bub1 high ATP kinase assay (TR-FRET)
- Format: biochemical
- recordedConditions: Bub1 high ATP (2 mM) IC50, TR-FRET, 2 mM ATP; Table 3
Reminder that pIC50 means the negative base-10 logarithm of the concentration expressed in mol/L.

Could you share which pIC50 value was measured for COc1c(Cl)cccc1Nc1c(-c2ccncc2OCC2OCCC2(F)F)[nH]c2c1C(=O)N[C@H](C)C2 (mixture of isomers) [Example 71] ?
5.24

Could you do the same for COc1c(Cl)cccc1Nc1c(-c2ccncc2OC[C@@H]2CCCO2)[nH]c2c1C(=O)N[C@H](C)C2 (single isomer, unassigned) , please?
5.01

Could you do the same for COc1c(Cl)cccc1Nc1c(-c2ccncc2OCCC(C)OC)[nH]c2c1C(=O)N[C@H](C)C2 (mixture of isomers) [Example 120] , please?
5.83

###

- testSystem: Ba/F3-EGFR-E746_A750del cells (Homo sapiens, UniProt P00533, DEL746-750, cells depend on it)
- Sequence (P00533 with tags, fused parts or gaps DEL746-750): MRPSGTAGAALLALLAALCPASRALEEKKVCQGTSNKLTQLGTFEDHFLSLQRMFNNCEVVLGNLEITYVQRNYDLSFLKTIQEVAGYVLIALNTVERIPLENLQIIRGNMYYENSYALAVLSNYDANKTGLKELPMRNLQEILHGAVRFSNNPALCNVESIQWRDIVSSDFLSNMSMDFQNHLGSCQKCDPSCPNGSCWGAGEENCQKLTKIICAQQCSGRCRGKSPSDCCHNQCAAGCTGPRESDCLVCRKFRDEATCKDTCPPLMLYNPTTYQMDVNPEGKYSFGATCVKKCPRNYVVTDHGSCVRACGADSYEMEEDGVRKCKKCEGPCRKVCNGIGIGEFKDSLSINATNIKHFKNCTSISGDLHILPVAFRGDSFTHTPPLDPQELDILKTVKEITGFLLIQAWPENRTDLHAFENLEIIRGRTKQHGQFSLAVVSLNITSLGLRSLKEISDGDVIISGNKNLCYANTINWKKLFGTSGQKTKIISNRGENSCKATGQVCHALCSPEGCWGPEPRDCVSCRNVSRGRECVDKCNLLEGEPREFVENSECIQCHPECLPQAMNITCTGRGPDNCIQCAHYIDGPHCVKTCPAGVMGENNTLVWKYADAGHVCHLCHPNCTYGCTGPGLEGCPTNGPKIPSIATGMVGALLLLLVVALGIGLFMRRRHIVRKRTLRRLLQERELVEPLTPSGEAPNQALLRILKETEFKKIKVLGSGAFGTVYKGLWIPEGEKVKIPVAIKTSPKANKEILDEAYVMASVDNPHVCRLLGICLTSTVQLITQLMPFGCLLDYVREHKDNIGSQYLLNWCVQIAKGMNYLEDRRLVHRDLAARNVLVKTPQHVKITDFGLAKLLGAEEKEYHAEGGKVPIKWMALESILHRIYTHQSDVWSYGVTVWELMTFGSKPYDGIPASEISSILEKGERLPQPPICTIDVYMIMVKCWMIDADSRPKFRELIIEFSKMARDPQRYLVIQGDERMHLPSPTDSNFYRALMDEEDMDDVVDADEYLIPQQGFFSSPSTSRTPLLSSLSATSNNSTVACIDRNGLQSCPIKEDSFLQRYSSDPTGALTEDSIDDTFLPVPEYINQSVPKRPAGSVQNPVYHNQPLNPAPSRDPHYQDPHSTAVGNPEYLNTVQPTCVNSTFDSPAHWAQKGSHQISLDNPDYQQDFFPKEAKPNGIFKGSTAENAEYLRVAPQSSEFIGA
- assayMethodText: Ba/F3 cell survival assay, EGFR E746_A750del
- Format: cell-based
- recordedConditions: classical activating and rare EGFR mutations; Table 7; read-out: BA/F3 (EGFR E746_A750del) IC50
measuredAttribute: GI50 (nM)
Number in nM, nothing else.

Could you share which GI50 value was measured for COCC(C)Oc1cnccc1-c1[nH]c2c(c1Nc1cccc(Cl)c1OC)C(=O)N[C@@H]1CCC[C@H]21 (single isomer, unassigned) ?
1.05

Could you do the same for COc1c(Cl)cccc1Nc1c(-c2ccncc2OC[C@@H]2CCCO2)[nH]c2c1C(=O)NC1(CC1)C2 , please?
0.989

Could you do the same for COc1c(Cl)cccc1Nc1c(-c2ccncc2OCCC2CCCCO2)[nH]c2c1C(=O)N[C@H](C)C2 (single isomer, unassigned) , please?
5

Could you do the same for Cc1c(Cl)cccc1Nc1c(-c2ccncc2OCC2COCCO2)[nH]c2c1C(=O)NCC2C (single isomer, unassigned) , please?
1.41

Could you do the same for COc1c(Cl)cccc1Nc1c(-c2ccncc2OCCC(C)OC)[nH]c2c1C(=O)N[C@H](C)C2 (single isomer, unassigned) , please?
0.887

Could you do the same for COc1c(Cl)cccc1Nc1c(-c2ccncc2OCC2COCCO2)[nH]c2c1C(=O)NCC2C (single isomer, unassigned) , please?
1.19

###

Please go through the items and note down their GI50.
- testSystem: Ba/F3-EGFR-N771_P772insH cells (Homo sapiens, UniProt P00533, INS771H, cells depend on it)
- assayMethodText: Ba/F3 cell survival assay, EGFR N771_P772insH
- Type: cell-based
- recordedConditions: EGFR Exon20 insertion mutations; Table 6; read-out: BA/F3 (EGFR N771_P772insH) IC50
Number in nM, nothing else.

Could you share which GI50 value was measured for COc1c(Cl)cccc1Nc1c(-c2ccncc2OCCC2CCCCO2)[nH]c2c1C(=O)N[C@H](C)C2 (single isomer, unassigned) [Example 87] ?
21.6

Could you do the same for COc1c(Cl)cccc1Nc1c(-c2ccncc2OCCC(C)OC)[nH]c2c1C(=O)N[C@H](C)C2 (single isomer, unassigned) [Example 121] , please?
4.49

Could you do the same for COc1c(Cl)cccc1Nc1c(-c2ccncc2OCC2COCCO2)[nH]c2c1C(=O)NCC2C (single isomer, unassigned) [Example 34] , please?
14.3

###

- testSystem: Ba/F3-EGFR-D770_N771insNPG cells (Homo sapiens, UniProt P00533, INS772GNP, cells depend on it)
- Sequence (P00533 with tags, fused parts or gaps INS772GNP): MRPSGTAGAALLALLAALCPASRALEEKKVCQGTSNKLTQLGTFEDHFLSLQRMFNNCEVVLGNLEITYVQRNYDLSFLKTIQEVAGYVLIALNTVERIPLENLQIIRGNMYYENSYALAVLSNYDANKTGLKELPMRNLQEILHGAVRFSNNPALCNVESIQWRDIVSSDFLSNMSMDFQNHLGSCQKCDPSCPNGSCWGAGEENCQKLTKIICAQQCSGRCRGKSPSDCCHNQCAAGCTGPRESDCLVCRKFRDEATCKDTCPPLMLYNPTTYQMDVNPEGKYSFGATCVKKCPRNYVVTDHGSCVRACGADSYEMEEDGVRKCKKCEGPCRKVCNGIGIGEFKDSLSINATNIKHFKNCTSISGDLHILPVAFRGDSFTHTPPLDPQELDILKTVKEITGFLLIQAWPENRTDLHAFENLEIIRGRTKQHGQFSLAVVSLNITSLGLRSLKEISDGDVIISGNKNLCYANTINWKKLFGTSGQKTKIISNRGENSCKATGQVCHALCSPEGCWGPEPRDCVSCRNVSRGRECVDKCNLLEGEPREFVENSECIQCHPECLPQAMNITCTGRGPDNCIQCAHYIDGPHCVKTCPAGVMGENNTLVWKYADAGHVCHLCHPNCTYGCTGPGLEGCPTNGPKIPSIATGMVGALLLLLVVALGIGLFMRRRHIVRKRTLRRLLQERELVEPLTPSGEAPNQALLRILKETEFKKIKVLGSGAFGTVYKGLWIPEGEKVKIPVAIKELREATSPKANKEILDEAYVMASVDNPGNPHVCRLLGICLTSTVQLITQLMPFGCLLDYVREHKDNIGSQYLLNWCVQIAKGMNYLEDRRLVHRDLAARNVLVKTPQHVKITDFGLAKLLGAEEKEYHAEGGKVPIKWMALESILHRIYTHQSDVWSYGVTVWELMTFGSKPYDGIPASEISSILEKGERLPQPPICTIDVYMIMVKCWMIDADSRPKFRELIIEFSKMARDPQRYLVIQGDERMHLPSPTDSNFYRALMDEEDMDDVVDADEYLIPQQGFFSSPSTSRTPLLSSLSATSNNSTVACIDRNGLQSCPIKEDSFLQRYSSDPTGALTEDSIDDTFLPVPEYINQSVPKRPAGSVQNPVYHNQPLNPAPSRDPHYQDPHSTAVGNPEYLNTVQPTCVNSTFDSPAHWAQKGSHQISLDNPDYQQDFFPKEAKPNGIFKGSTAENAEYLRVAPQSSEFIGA
- assayMethodText: Ba/F3 cell survival assay, EGFR D770_N771insNPG
- Format: cell-based
- recordedConditions: EGFR Exon20 insertion mutations; Table 6; read-out: BA/F3 (insNPG) IC50
Please go through the items and note down their GI50.
Number in nM, nothing else.

Could you share which GI50 value was measured for COc1c(Cl)cccc1Nc1c(-c2ccncc2OCC2COCCO2)[nH]c2c1C(=O)NCC2C (single isomer, unassigned) ?
16.9

Could you do the same for COc1c(Cl)cccc1Nc1c(-c2ccncc2OC[C@@H]2CCCO2)[nH]c2c1C(=O)NC1(CC1)C2 , please?
24.9

Could you do the same for COCC(C)Oc1cnccc1-c1[nH]c2c(c1Nc1cccc(Cl)c1OC)C(=O)N[C@@H]1CCC[C@H]21 (single isomer, unassigned) , please?
11.4

Could you do the same for COc1c(Cl)cccc1Nc1c(-c2ccncc2OCCC(C)OC)[nH]c2c1C(=O)N[C@H](C)C2 (single isomer, unassigned) , please?
12.8

Could you do the same for Cc1c(Cl)cccc1Nc1c(-c2ccncc2OCC2COCCO2)[nH]c2c1C(=O)NCC2C (single isomer, unassigned) , please?
13.5

Could you do the same for COc1c(Cl)cccc1Nc1c(-c2ccncc2OCCC2CCCCO2)[nH]c2c1C(=O)N[C@H](C)C2 (single isomer, unassigned) , please?
15
